All values here come from patent US20220135567A1.

Test system: IFN-a/Jak1Tyk2
Assay: Co-stimulation assay in lysed whole blood: IFNa (JAK1/TYK2) stimulated STAT1 phosphorylation
Assay type: cell-based
Settings: 20 min, lysed human whole blood, IFNa 100 ng/mL + GM-CSF 10 ng/mL, pSTAT1 by flow cytometry
pIC50: −log10 of the molar value.
property.label: pIC50

Some entries whose results are on file:
compound	pIC50
CCOC(=O)c1cscc1Nc1cc(NC)n2ncc(C(=O)NC3CC3)c2n1 [Compound 37]	< 6.52
CNc1cc(Nc2cccn(C)c2=O)nc2c(C(=O)NC3CC(OC)C3)cnn12 (centres unmarked) [Compound 88]	< 5.52
CNc1cc(Nc2cccc3c2OCCO3)nc2c(C(=O)NC3CC(C)(O)C3)cnn12 (centres unmarked) [Compound 75]	> 7.00
CNc1cc(Nc2cccn(-c3ccccn3)c2=O)nc2c(C(=O)NC3CC3)cnn12 [Compound 33]	> 7.00

Now let's try a different one.
Consider CNc1cc(Nc2ccnn2CC(F)(F)F)nc2c(C(=O)NC3CC3)cnn12 [Compound 70] . Its measured pIC50 is 6.00 to 7.00
